- System: VIM-2 metallo-beta-lactamase (Pseudomonas aeruginosa)
- EXPERIMENT NOTES: inhibition of VIM-2 nitrocefin hydrolysis – biochemical, epi-absorbance readout, Pseudomonas aeruginosa enzyme, primary screen (AID 1527);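 also: red hydrolysis product quenches plate fluorescence so inhibitors raise well fluorescence; 0% = enzyme with DMSO and 100% = DMSO without enzyme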
- CONDITIONS: purified VIM-2, nitrocefin hydrolysis, epi-absorbance fluorescence; at 5.6 µM; active compounds read high
Among all 290,000 compounds or so, about 2,600 (0.9%) were called active. The sample holds actives, similar compounds and a random draw of the others, so the mix is not that of the screen.
molecules and their reported inhibition
METRIC: inhibition (%)

| MOLECULE | TESTED ON | UNIT DESCRIPTOR | MEASUREMENT |
| --- | --- | --- | --- |
| Cc1c(C=O)c2ccccc2n1CCOc1ccccc1 | VIM-2 metallo-beta-lactamase (Pseudomonas aeruginosa) | % | -0.2 |
| COc1ccc(/C=N/Nc2nc3ccccc3o2)cc1OC | VIM-2 metallo-beta-lactamase (Pseudomonas aeruginosa) | % | -2.44 |
| CCCn1c(SCC(=O)c2ccc3c(c2)OCCO3)nnc1C(C)C | VIM-2 metallo-beta-lactamase (Pseudomonas aeruginosa) | % | 9.77 |
| Cc1ccc2[nH]c(=O)c(CC(=O)O)c(-c3ccccc3)c2c1 | VIM-2 metallo-beta-lactamase (Pseudomonas aeruginosa) | % | -3.01 |
| c1ccc(-c2nccc(-c3ccc(-n4cnc5ccccc54)cc3)n2)nc1 | VIM-2 metallo-beta-lactamase (Pseudomonas aeruginosa) | % | 59.9 |
| C=CCOCCN(C)C1=NS(=O)(=O)c2ccccc21 | VIM-2 metallo-beta-lactamase (Pseudomonas aeruginosa) | % | -0.19 |
| Cc1cccn2cc(-c3cccc(S(=O)(=O)N4CCCCC4)c3)nc12 | VIM-2 metallo-beta-lactamase (Pseudomonas aeruginosa) | % | -0.51 |
| CCc1nc(Nc2ccc3nccnc3c2)c2oc3ccccc3c2n1 | VIM-2 metallo-beta-lactamase (Pseudomonas aeruginosa) | % | 6.61 |
| Cc1cc(NCc2ccco2)n2c(nc3ccccc32)c1C#N | VIM-2 metallo-beta-lactamase (Pseudomonas aeruginosa) | % | 23.1 |
| Cc1cc(OCCCN2CCN(Cc3ccccc3)CC2)ccc1[N+](=O)[O-] | VIM-2 metallo-beta-lactamase (Pseudomonas aeruginosa) | % | 8.13 |
| COc1cc(CN2CCN(Cc3ccc(C)cc3)CC2)c([N+](=O)[O-])cc1OC | VIM-2 metallo-beta-lactamase (Pseudomonas aeruginosa) | % | 0.03 |
| COc1ccc(/C=N/S(=O)(=O)c2ccccc2)cc1OC | VIM-2 metallo-beta-lactamase (Pseudomonas aeruginosa) | % | 2.08 |
| Cc1cc(OCCCCOc2ccc(C#N)cc2)ccc1[N+](=O)[O-] | VIM-2 metallo-beta-lactamase (Pseudomonas aeruginosa) | % | -2.44 |
| O=C(C1CCN(S(=O)(=O)c2ccc(Br)s2)CC1)N1CCN(c2ccccc2)CC1 | VIM-2 metallo-beta-lactamase (Pseudomonas aeruginosa) | % | -3.44 |
| CCC1CCCCN1CCCNC(=O)c1cc2c(Cl)nc3ccccc3c2s1 (stereo not given) | VIM-2 metallo-beta-lactamase (Pseudomonas aeruginosa) | % | 19.5 |

###

compounds and their reported inhibition
- Test system: VIM-2 metallo-beta-lactamase (Pseudomonas aeruginosa)
- EXPERIMENT NOTES: inhibition of VIM-2 nitrocefin hydrolysis – biochemical, epi-absorbance readout, Pseudomonas aeruginosa enzyme, primary screen (AID 1527);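 also: red hydrolysis product quenches plate fluorescence so inhibitors raise well fluorescence; 0% = enzyme with DMSO and 100% = DMSO without enzyme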
- CONDITIONS: purified VIM-2, nitrocefin hydrolysis, epi-absorbance fluorescence; at 5.6 µM; active compounds read high
Out of some 290,000 compounds screened, about 2,600 (0.9%) were called active. The list comes from a sample in which actives are over-represented; it also holds close analogues and randomly drawn compounds.
METRIC: inhibition (%)

| STRUCTURE STRING | UNIT DESCRIPTOR | MEASUREMENT |
| --- | --- | --- |
| NS(=O)(=O)c1ccc(NC(=O)COC(=O)c2cc3ccccc3oc2=O)cc1 | % | 0.95 |
| NS(=O)(=O)c1ccc(NC(=O)COC(=O)c2c3c(nc4ccccc24)/C(=C\c2ccc4c(c2)OCO4)CCC3)cc1 | % | 23.9 |
| O=C(COC(=O)c1c2c(nc3ccccc13)/C(=C\c1cccs1)CCC2)Nc1ccccc1Cl | % | -4.79 |
| COc1cc(-c2cc(C(=O)OCC(=O)Nc3ccc4c(c3)OCO4)c3ccccc3n2)cc(OC)c1OC | % | 2.83 |
| CCCN(CCC)CCNC(=O)c1cc2c(C)nc3ccccc3c2o1 | % | 10.2 |
| C=CCn1c(-c2ccccc2OCC)n[nH]c1=S | % | 25.3 |
| NC(=O)c1ccc(NC(=O)COC(=O)c2c3c(nc4ccccc24)/C(=C\c2ccc4c(c2)OCO4)CCC3)cc1 | % | 20.7 |
